Data origin: patent US12364709B2

Assay: 28-day repeat-dose toxicity study, toxicokinetics of AMXT 1501 dicaprate
Format: in vivo, beagle dogs
Conditions: both sexes, beagle, dog, plasma, po, 8 mg/kg/day, 8 mg/kg/day PO, DFMO 0, Day 28, M+F combined; read-out: Tmax Mean
Method: AMXT 1501 PK parameters were calculated for all AMXT 1501 dicaprate-dosed animals for the first dose (Day 1) and last dose (Day 28).
MEASURED PARAMETER: Tmax (h)

> print(dat)
                                   compound  unit.label  reported.result
1  CCCCCCCCCCCCCCCC(=O)NCCCC[C@@H](N)C(=O)NCCCNCCCCNCCCN [AMXT 1501 dicaprate]           h              4.6

----------
assay: 5 day repeat oral dosing PK of AMXT 1501 dicaprate; assay type: in vivo, beagle dogs; conditions: both sexes, beagle, dog, plasma, po, 8 mg/kg, 8 mg/kg PO, Day 1, individual animals; read-out: Cmax
MEASURED PARAMETER: Cmax (ng/mL)

> print(dat)
                                   molecule  measured.parameter  reported.result
1  CCCCCCCCCCCCCCCC(=O)NCCCC[C@@H](N)C(=O)NCCCNCCCCNCCCN [AMXT 1501 dicaprate]                Cmax              139

----------
assay: 28-day repeat-dose toxicity study, toxicokinetics of AMXT 1501 dicaprate; type: in vivo, beagle dogs; details: both sexes, beagle, dog, plasma, po, 16 mg/kg/day, 16 mg/kg/day PO, DFMO 50 mg/kg/day, Day 28, M+F combined; read-out: AUC0-t Median
MEASURED PARAMETER: AUC(0-t)

> print(dat)
                                   compound  reported.result
1  CCCCCCCCCCCCCCCC(=O)NCCCC[C@@H](N)C(=O)NCCCNCCCCNCCCN [AMXT 1501 dicaprate]     6010 ng·h/mL

----------
test: 5 day repeat oral dosing PK of AMXT 1501 dicaprate; assay type: in vivo, beagle dogs; details: both sexes, beagle, dog, plasma, po, 32 mg/kg, 32 mg/kg PO once daily, Day 5, individual animals; read-out: Cmax
MEASURED PARAMETER: Cmax

> print(dat)
                                   compound  reported.result
1  CCCCCCCCCCCCCCCC(=O)NCCCC[C@@H](N)C(=O)NCCCNCCCCNCCCN [AMXT 1501 dicaprate]       1140 ng/mL

----------
Experiment: 28-day repeat-dose toxicity study, toxicokinetics of AMXT 1501 dicaprate
Format: in vivo, beagle dogs
Conditions: both sexes, beagle, dog, plasma, po, 8 mg/kg/day, 8 mg/kg/day PO, DFMO 0, Day 1, M+F combined; read-out: AUC0-24 hr Mean
Protocol: AMXT 1501 PK parameters were calculated for all AMXT 1501 dicaprate-dosed animals for the first dose (Day 1) and last dose (Day 28).
MEASURED PARAMETER: AUC(0-t) (ng·h/mL)

> print(dat)
                                   compound  measured.parameter  reported.result
1  CCCCCCCCCCCCCCCC(=O)NCCCC[C@@H](N)C(=O)NCCCNCCCCNCCCN [AMXT 1501 dicaprate]            AUC(0-t)             1330

----------
Assay: 5 day repeat oral dosing PK of AMXT 1501 dicaprate
Format: in vivo, beagle dogs
Conditions: both sexes, beagle, dog, plasma, po, 32 mg/kg, 32 mg/kg PO once daily, Day 5, individual animals; read-out: t1/2 (converted)
Protocol: The pharmacokinetic (PK) profiles after dosing on Days 1 and 5 were evaluated using standard noncompartmental methods. The following experimental design was used. […] Plasma samples were analyzed for AMXT 1501 concentration via a liquid chromatography/mass spectrometry (LC/MS-MS) procedure and the resulting concentration versus time data were used to estimate individual animal PK parameters using noncompartmental analysis (NCA).
MEASURED PARAMETER: half-life (h)

> print(dat)
                                   molecule  measured.parameter  reported.result
1  CCCCCCCCCCCCCCCC(=O)NCCCC[C@@H](N)C(=O)NCCCNCCCCNCCCN [AMXT 1501 dicaprate]           half-life             10.7

----------
assay: 5 day repeat oral dosing PK of AMXT 1501 dicaprate; assay type: in vivo, beagle dogs; details: both sexes, beagle, dog, plasma, po, 16 mg/kg, 16 mg/kg PO once daily, Day 5, group mean; read-out: t1/2 Mean (converted)
MEASURED PARAMETER: half-life (h)

> print(dat)
                                   compound  reported.result
1  CCCCCCCCCCCCCCCC(=O)NCCCC[C@@H](N)C(=O)NCCCNCCCCNCCCN [AMXT 1501 dicaprate]             11.7

----------
experiment: Pharmacokinetic analysis of AMXT 1501 salt forms, single oral tablet dose; type: in vivo, beagle dogs; conditions: beagle, dog, plasma, po, 16 mg/kg, single PO dose 16.0 mg/kg, plasma AMXT 1501; read-out: t1/2 Mean (converted)
MEASURED PARAMETER: half-life (h)

> print(dat)
                                   compound  unit.label  reported.result
1  CCCCCCCCCCCCCCCC(=O)NCCCC[C@@H](N)C(=O)NCCCNCCCCNCCCN [AMXT 1501 dicaprate]           h               14

----------
test: 28-day repeat-dose toxicity study, toxicokinetics of AMXT 1501 dicaprate; assay type: in vivo, beagle dogs; conditions: both sexes, beagle, dog, plasma, po, 8 mg/kg/day, 8 mg/kg/day PO, DFMO 50 mg/kg/day, Day 28, M+F combined; read-out: AUC0-∞ Median
MEASURED PARAMETER: AUC(0-inf)

> print(dat)
                                   compound  reported.result
1  CCCCCCCCCCCCCCCC(=O)NCCCC[C@@H](N)C(=O)NCCCNCCCCNCCCN [AMXT 1501 dicaprate]     3020 ng·h/mL

----------
assay: 28-day repeat-dose toxicity study, toxicokinetics of AMXT 1501 dicaprate; type: in vivo, beagle dogs; conditions: both sexes, beagle, dog, plasma, po, 16 mg/kg/day, 16 mg/kg/day PO, DFMO 0, Day 28, M+F combined; read-out: AUC0-∞ Mean
MEASURED PARAMETER: AUC(0-inf) (ng·h/mL)

> print(dat)
                                   molecule  measured.parameter  reported.result
1  CCCCCCCCCCCCCCCC(=O)NCCCC[C@@H](N)C(=O)NCCCNCCCCNCCCN [AMXT 1501 dicaprate]          AUC(0-inf)             8070

----------
experiment: 28-day repeat-dose toxicity study, toxicokinetics of AMXT 1501 dicaprate; type: in vivo, beagle dogs; conditions: both sexes, beagle, dog, plasma, po, 16 mg/kg/day, 16 mg/kg/day PO, DFMO 0, Day 1, M+F combined; read-out: Cmax Mean
MEASURED PARAMETER: Cmax (ng/mL)

> print(dat)
                                   compound  reported.result
1  CCCCCCCCCCCCCCCC(=O)NCCCC[C@@H](N)C(=O)NCCCNCCCCNCCCN [AMXT 1501 dicaprate]              155

----------
Assay: Pharmacokinetic analysis of AMXT 1501 salt forms, single oral tablet dose
Assay type: in vivo, beagle dogs
Details: beagle, dog, plasma, po, 16 mg/kg, single PO dose 16.0 mg/kg, plasma AMXT 1501; read-out: t1/2 Median (converted)
Description: Following dose administration all the animals had serial blood collections. Table 18 provides pharmacokinetic data obtained using the various salt forms of AMXT 1501 following single PO dosing to dogs. In Table 18, Group 1 received the free base form of AMXT 1501, Group 2 received the dicholate salt of AMXT 1501, Group 3 received the phosphate salt form of AMXT 1501, and Group 4 received the dicaprate salt form of AMXT 1501. […]
MEASURED PARAMETER: half-life

> print(dat)
                                   molecule  reported.result
1  CCCCCCCCCCCCCCCC(=O)NCCCC[C@@H](N)C(=O)NCCCNCCCCNCCCN [AMXT 1501 dicaprate]           13.4 h

----------
assay: 5 day repeat oral dosing PK of AMXT 1501 dicaprate; type: in vivo, beagle dogs; conditions: both sexes, beagle, dog, plasma, po, 8 mg/kg, 8 mg/kg PO once daily, Day 5, group mean; read-out: Tmax Mean
MEASURED PARAMETER: Tmax (h)

> print(dat)
                                   compound  measured.parameter  unit.label  reported.result
1  CCCCCCCCCCCCCCCC(=O)NCCCC[C@@H](N)C(=O)NCCCNCCCCNCCCN [AMXT 1501 dicaprate]                Tmax           h             5.33
